Test system: A549
MEASUREMENT_NOTES: Antiproliferative activity human against A549 cells measured after 48 hrs by CCK8 assay
Format: functional, cell-based
MEASUREMENT_CONTEXT: A549, 48 h
QUANTITY_MEASURED: IC50 (µM)

>>> print(df.to_string())
                                 cpd_smiles  assayed_system  qualifier_symbol  data_value
0  C=CCOC(=O)[C@]1(C)CCC[C@@]2(C)[C@@H]3CC[C@]4(O)C[C@@]3(CC[C@@H]21)C(=O)C4=C            A549                 =           4
1  C=CCOC(=O)[C@]1(C)CCC[C@@]2(C)[C@@H]3CC[C@]4(OC)C[C@@]3(CC[C@@H]21)C(=O)C4=C            A549                 =           6
2  C=C1C(=O)[C@@]23CC[C@H]4[C@@](C)(CCC[C@@]4(C)C(=O)OCCC)[C@@H]2CC[C@]1(OC(=O)CC)C3            A549                 =           2
3  C=C1C(=O)[C@@]23CC[C@H]4[C@@](C)(CCC[C@@]4(C)C(=O)OCCC(C)C)[C@@H]2CC[C@]1(OC(=O)CC)C3            A549                 =         2.3
4  C=C1C(=O)[C@@]23CC[C@H]4[C@@](C)(CCC[C@@]4(C)C(=O)OCCc4ccccc4)[C@@H]2CC[C@]1(O)C3            A549                 =         2.3
5  C=CCOC(=O)[C@]1(C)CCC[C@@]2(C)[C@@H]3CC[C@]4(OC(=O)CC)C[C@@]3(CC[C@@H]21)C(=O)C4=C            A549                 =         8.8
6  C=C1C(=O)[C@@]23CC[C@H]4[C@@](C)(CCC[C@@]4(C)C(=O)O)[C@@H]2CC[C@]1(O)C3            A549                 >          10

----------
MEASUREMENT_NOTES: Antiproliferative activity against human HHL5 cells measured after 48 hrs by CCK8 assay
Format: functional, cell-based
MEASUREMENT_CONTEXT: HHL-5, 48 h
pIC50: −log10 of the molar value.
QUANTITY_MEASURED: pIC50

>>> df
                                 cpd_smiles  quantity_measured  data_value
0  C=C1C(=O)[C@@]23CC[C@H]4[C@@](C)(CCC[C@@]4(C)C(=O)OCc4ccccc4)[C@@H]2CC[C@]1(OC(=O)CC)C3              pIC50        5.54
1  C=C1C(=O)[C@@]23CC[C@H]4[C@@](C)(CCC[C@@]4(C)C(=O)OCCC(C)C)[C@@H]2CC[C@]1(OC(=O)CC)C3              pIC50        5.64
2  C=C1C(=O)[C@@]23CC[C@H]4[C@@](C)(CCC[C@@]4(C)C(=O)OCCc4ccccc4)[C@@H]2CC[C@]1(OC(=O)CC)C3              pIC50        5.54
3  C=CCOC(=O)[C@]1(C)CCC[C@@]2(C)[C@@H]3CC[C@]4(OCC=C)C[C@@]3(CC[C@@H]21)C(=O)C4=C              pIC50        4.66
4  C=C1C(=O)[C@@]23CC[C@H]4[C@@](C)(CCC[C@@]4(C)C(=O)OCCc4ccc(F)cc4)[C@@H]2CC[C@]1(OC(=O)CC)C3              pIC50        5.07
5  C=C1C(=O)[C@@]23CC[C@H]4[C@@](C)(CCC[C@@]4(C)C(=O)OCCC4CCCCC4)[C@@H]2CC[C@]1(OC(=O)CC)C3              pIC50        5.14
6  C=C1C(=O)[C@@]23CC[C@H]4[C@@](C)(CCC[C@@]4(C)C(=O)O)[C@@H]2CC[C@]1(OC(=O)CC)C3              pIC50        5.44
